MIC by entry:
- Test system: Vibrio cholerae
- Measurement Description: Antibacterial activity against Vibrio cholerae MTCC 3906 by broth microdilution method
- Format: functional
A complete answer gives the number and then names the unit.

Example compounds with recorded MIC:
>>> df
                                   compound  experimental_target  endpoint_result
0  COc1ccc2nc(Cl)c(C3C(C#N)=C(N)N(Nc4ccc(Br)cc4)C4=C3C(=O)CC(C)(C)C4)cc2c1 (configuration not stated)      Vibrio cholerae        200 µg/mL
1  CC1(C)CC(=O)C2=C(C1)N(Nc1ccccc1)C(N)=C(C#N)C2c1cc2cc(Cl)ccc2nc1Cl (configuration not stated)      Vibrio cholerae       1000 µg/mL
2  Cc1ccc(NN2C(N)=C(C#N)C(c3cc4cc(C)ccc4nc3Cl)C3=C2CC(C)(C)CC3=O)cc1 (configuration not stated)      Vibrio cholerae        500 µg/mL
3  COc1ccc(NN2C(N)=C(C#N)C(c3cc4cc(Cl)ccc4nc3Cl)C3=C2CC(C)(C)CC3=O)cc1 (configuration not stated)      Vibrio cholerae        250 µg/mL
4  Cc1ccc2nc(Cl)c(C3C(C#N)=C(N)N(Nc4ccc(Cl)cc4)C4=C3C(=O)CC(C)(C)C4)cc2c1 (configuration not stated)      Vibrio cholerae        200 µg/mL

Field MIC (entry Cc1ccc(NN2C(N)=C(C#N)C(c3cc4ccccc4nc3Cl)C3=C2CC(C)(C)CC3=O)cc1 (configuration not stated) ) reads 250 µg/mL

Lab book: MIC of Cc1ccc2nc(Cl)c(C3C(C#N)=C(N)N(Nc4ccc(F)cc4)C4=C3C(=O)CC(C)(C)C4)cc2c1 (configuration not stated) noted as 200 µg/mL

# compound COc1ccc2nc(Cl)c(C3C(C#N)=C(N)N(Nc4ccccc4)C4=C3C(=O)CC(C)(C)C4)cc2c1 (configuration not stated) ; its MIC = 500 µg/mL
